System: Human papillomavirus type 1a E7 protein (residues 1-88)
assay-text: HPV1a E7 small-molecule binders, primary screen, biochemical, small-molecule microarray, residues 1-88, 635 nm (AID 1129)
run-parameters: small-molecule microarray binding, fluorescence 635 nm; higher = more signal
parameter: composite z-score

1. COC(=O)[C@@]1(Cc2ccc(OC)cc2)[C@H]2c3cc(C(=O)N4CCCC4)n(CCc4ccc(O)c(OC)c4)c3C[C@H]2CN1C(=O)c1ccccc1
0.23
2. O=[N+]([O-])c1ccc(C[n+]2ccc(-c3ccc(CO)cc3)cc2)o1
0.148
3. COC(=O)[C@@]1(Cc2ccc(OC)cc2)[C@H]2c3cc(C(=O)N(C)C)n(Cc4cc(F)c(F)c(F)c4)c3C[C@H]2CN1C(=O)c1ccccc1
1.21
4. CCCC[C@H]1OB(O)C[C@H]2C1=C(COc1ccccc1)Cn1c(=O)n(-c3ccccc3)c(=O)n12
0.711
5. CCCCCCCCCCC(O)C1C=CC2C(=O)NC(=O)C2N1Nc1ccccn1 (stereo not drawn)
0.749
6. C[N+](C)(C)CCCC[C@@H]1NC(=O)[C@@H]2C[C@H](C(=O)O)[C@H](c3cccc(OCCO)c3)N2C1=O
-0.586
7. Cc1cc(C)c(C(O)C2C=CC3C(=O)N(c4ccccc4)C(=O)C3N2Nc2ccccc2)c(C)c1 (stereo not drawn)
1.22
8. [N-]=[N+]=Nc1ccccc1[C@H]1OC(c2ccc(OCCCO)cc2)=N[C@@]1(Cc1ccccc1)C(=O)NCc1ccccc1
1.2
9. COc1ccc(C#Cc2ccc3c(c2)[C@]2(C(=O)N3)[C@H](C(=O)O)[C@H]3C(=O)O[C@H](c4ccccc4)[C@H](c4ccccc4)N3[C@@H]2c2ccc(OCCO)cc2)cc1
1.19
10. COc1cc(NN2C(C(O)c3ccc(I)cc3)C=CC3C(=O)N(C)C(=O)C32)cc(OC)c1OC (stereo not drawn)
0.351
11. CCN(CC)c1ccc(N2CC=CC34O[C@@H]5/C=C\CCCOC(=O)C5[C@H]3C(=O)N(CCCCCO)[C@@H]4C2=O)cc1 (stereo partly drawn)
-1.39
12. CCCCC(=C=CC[C@H](O)c1ccccc1OCCO)C[C@H](O)c1ccccn1
0.0909
13. COc1cc(C(O)C2C=CC3C(=O)NC(=O)C3N2Nc2ccc(Cl)cc2Cl)cc(OC)c1OC (stereo not drawn)
1.24
14. Cc1ccccc1C(O)C1C=CC2C(=O)N(Cc3ccccc3)C(=O)C2N1n1cnnc1 (stereo not drawn)
1.05
15. COCCOC(=O)N1C(=O)[C@@]2(c3cc(C#CCCO)ccc31)[C@H](C(=O)NC[C@H](O)c1ccccc1)[C@H]1C(=O)O[C@H](c3ccccc3)[C@H](c3ccccc3)N1[C@@H]2c1ccccc1OCCO
1.23
16. COC(=O)[C@@]1(Cc2ccccc2)[C@H]2c3cc(C(=O)N4CCCC4)n(CCO)c3C[C@H]2CN1C(=O)c1ccccc1
0.992
17. Cc1ccc(S[C@]2(C(=O)NCc3ccccc3)CC(=O)N(C3Cc4ccccc4C3)[C@@H]2c2ccc(CO)cc2I)cc1
-0.621
18. O=C1O[C@@H](c2ccccc2)[C@@H](c2ccccc2)N2[C@@H](c3ccc(O)cc3)[C@]3(C(=O)Nc4ccc(C#CC5(O)CCCCCC5)cc43)[C@@H](C(=O)N3CCN(c4ncccn4)CC3)[C@H]12
1.22
19. C=C(COC)C(=O)CC[C@H](OC(=O)c1ccccc1-c1ccccc1C(=O)O)c1ccc(CO)o1
0.154
20. [N-]=[N+]=NCc1ccccc1[C@H]1OC(c2ccc(OCCCO)cc2)=N[C@@]1(Cc1ccccc1)C(N)=O
1.24
21. COC(=O)C(CC#Cc1ccc2c(c1)[C@]1(C(=O)N2)[C@H](c2ccc(OCCO)cc2)N2[C@H](c3ccccc3)[C@H](c3ccccc3)OC(=O)[C@H]2[C@@H]1C(=O)O)C(=O)OC
1.19
22. C[N+](C)(C)CCCC[C@@H]1NC(=O)[C@H]2C[C@@H](C(=O)NCCCCCCN)[C@@H](c3cccc(OCCO)c3)N2C1=O
1.21
23. CC(C)CCC[C@@H](C)[C@H]1CC[C@@]2(C)C3=C(CC[C@]12C)[C@@]1(C)CC[C@H](OC(=O)c2ccc(N)cc2)C(C)(C)C1CC3 (stereo partly drawn)
0.398
24. Cc1ccc(N2C(=O)c3ccccc3[C@](C)(C(=O)NC(C)C)[C@@H]2c2ccc(CO)cc2)nc1
-1.29
25. COc1cc2c(cc1OC)CN(C(=O)[C@@H]1[C@H]3C(=O)O[C@H](c4ccccc4)[C@H](c4ccccc4)N3[C@H](c3ccc(O)cc3)[C@@]13C(=O)Nc1ccc(C#CCNC(N)=O)cc13)CC2
0.69
26. CCOC(=O)C1=CC[C@@H](c2ccc(N(CC)CC)cc2)N(S(=O)(=O)c2ccc(C)cc2)[C@H]1c1ccc([N+](=O)[O-])cc1
0.836
27. COc1ccc(C(=O)Nc2ccc(CN3C(=O)[C@@]4(O[C@@H](CC(=O)N5Cc6ccccc6C[C@H]5CO)[C@H]([Si](C)(C)c5ccc(OC)cc5)[C@H]4C)c4ccccc43)cc2)cc1
1.13
28. COc1ccc([Si](C)(C)[C@@H]2[C@@H](CCO)O[C@]3(C(=O)N(Cc4ccccc4)c4ccc(N5CCCCC5=O)cc43)[C@H]2C)cc1
1.17
